# target-of-assay: Protein cereblon (Homo sapiens)
# Sequence (Q96SW2 whole entry): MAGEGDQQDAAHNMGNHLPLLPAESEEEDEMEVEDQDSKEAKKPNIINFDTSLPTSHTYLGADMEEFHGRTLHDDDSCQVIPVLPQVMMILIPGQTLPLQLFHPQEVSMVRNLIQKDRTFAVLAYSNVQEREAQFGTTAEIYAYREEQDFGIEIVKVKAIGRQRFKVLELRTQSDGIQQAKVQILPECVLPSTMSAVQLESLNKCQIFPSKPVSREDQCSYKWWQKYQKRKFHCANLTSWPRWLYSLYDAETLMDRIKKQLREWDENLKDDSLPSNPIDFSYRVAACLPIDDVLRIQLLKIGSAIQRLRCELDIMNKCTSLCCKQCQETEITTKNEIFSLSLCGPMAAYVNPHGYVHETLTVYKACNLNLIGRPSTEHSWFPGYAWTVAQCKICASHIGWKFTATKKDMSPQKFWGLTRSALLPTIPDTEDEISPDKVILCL
Ki listing for selected compounds.

{"compound": "Cc1cccc(N(C)C(=O)N2CC(OC(=O)NC3CN(c4cc(F)c(C5CCC(=O)NC5=O)c(F)c4)C3)C2)c1 (stereo not drawn)", "Ki": "< 0.1 µM"}
{"compound": "O=C1CCC(c2c(F)cc(N3CC(NC(=O)OCC4CC5(CCC5)C4)C3)cc2F)C(=O)N1 (stereo not drawn)", "Ki": "< 0.1 µM"}

Continue with the compound presented below.
**Query** Find Ki for Cc1ccnc(N2CC(OC(=O)NC3CN(c4cc(F)c(C5CCC(=O)NC5=O)c(F)c4)C3)C2)c1 (stereo not drawn) on Protein cereblon (Homo sapiens) and write it down.
**Result** < 0.1 µM
